Experimental system: feline FcRn complex (FcRn-α subunit and β-microglobulin), biotin labeled (feline)
Test: SPR, pH 6
pKd: −log10 of the molar value.
Outcome measure: pKd

>>> result_number("feline IgG1a Q311Y (antibody, part only; not given: Variable domains, not shown: another chain or arm of the molecule) constant: ASTTAPSVFPLAPSCGTTSGATVALACLVLGYFPEPVTVSWNSGALTSGVHTFPAVLQASGLYSLSSMVTVPSSRWLSDTFTCNVAHPPSNTKVDKTVRKTDHPPGPKPCDCPKCPPPEMLGGPSIFIFPPKPKDTLSISRTPEVTCLVVDLGPDDSDVQITWFVDNTQVYTAKTSPREEQFNSTYRVVSVLPILHYDWLKGKEFKCKVNSKSLPSPIERTISKAKGQPHEPQVYVLPPAQEELSRNKVSVTCLIKSFHPPDIAVEWEITGQPEPENNYRTTPPQLDSDGTYFVYSKLSVDRSHWQRGNTYTCSVSHEALHSHHTQKSLTQSPGK")
8.26

Source listed as patent US20240400708A1.
